Where do these numbers come from? They come from patent US10870660B2.

- Target Or System: human recombinant dopamine D3 receptor (Homo sapiens (Human))
- Sequence (P35462 whole entry): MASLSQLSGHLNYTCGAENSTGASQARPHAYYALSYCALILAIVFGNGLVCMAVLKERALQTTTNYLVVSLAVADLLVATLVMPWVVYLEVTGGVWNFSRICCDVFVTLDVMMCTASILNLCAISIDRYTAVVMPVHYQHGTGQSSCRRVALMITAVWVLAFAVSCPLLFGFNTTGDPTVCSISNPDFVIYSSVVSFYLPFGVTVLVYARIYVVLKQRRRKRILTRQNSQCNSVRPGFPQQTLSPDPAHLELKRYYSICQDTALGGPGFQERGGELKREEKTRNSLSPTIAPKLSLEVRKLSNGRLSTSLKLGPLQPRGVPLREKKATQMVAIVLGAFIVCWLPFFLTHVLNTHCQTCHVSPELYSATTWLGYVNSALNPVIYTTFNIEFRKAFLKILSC
- Method Description: Test of binding inhibition for the human dopamine D3 receptor ([3H]-Metylspiperone SPA binding)
- Experimental Parameters: [3H]-Metylspiperone 2 nM, Jump-In HEK cell membranes, read-out: hD3_Ki
Readout Label: Ki (nM)

CC(C)C(=O)N[C@H]1CC[C@H](CCN2CCc3nc(OCC(F)(F)F)sc3CC2)CC1: 0.31

[a] Cn1cc2c(C(=O)N[C@H]3CC[C@H](CCN4CCc5sc(COC(F)(F)F)nc5C4)CC3)cccc2n1
[b] O=C(N[C@H]1CC[C@H](CCN2CCc3sc(Cc4ccccc4)nc3C2)CC1)c1cccc2ncccc12
Input: Determine, for a and b , which has the greater value of Ki. In your reply, give the label of the chosen option.
Output: b
(b: 1.3 nM, a: 0.83 nM)
